Test system: Botrytis cinerea
assayProcedure: Fungicidal activity, fungicide growth rate method, BC
Type: cell-based
assayContext: Botrytis cinerea, 50 μg/mL; read-out: fungicidal activity (growth inhibition rate), BC
inhibition at 50 µg/mL listing for selected molecules.

molecule | measuredOn | limitQualifier | inhibition at 50 µg/mL / %
CCOC(=O)C1C(=O)O[C@]23CC=CC[C@@H]2[C@H](OOC(C)(C)C)C[C@]13O (some centres unmarked) | Botrytis cinerea | = | 45
CCOC(=O)C1C(=O)O[C@]23CC=CC[C@@H]2[C@H](OC)C[C@]13O (some centres unmarked) | Botrytis cinerea | = | 34
O=C1C[C@@]2(O)CC[C@H]3C[C@@H]4O[C@@H]4C[C@@]32O1 | Botrytis cinerea | = | 41
C=C(C)C1C[C@]2(O)C(C(=O)OCC)C(=O)O[C@@]23CC=CC[C@H]13 (some centres unmarked) | Botrytis cinerea | = | 13
C=CC[C@@H]1C[C@]2(O)CC(O)O[C@@]23CC=CC[C@H]13 (some centres unmarked) | Botrytis cinerea | = | 27
CC(C)(C)OO[C@@H]1CC(=O)[C@@]2(O)CC=CC[C@H]12 | Botrytis cinerea | = | 30
O=C1C[C@@]2(O)CC[C@H]3C[C@@H](O)[C@@H](Cl)C[C@@]32O1 | Botrytis cinerea | = | 27
C=CC[C@@H]1C[C@]2(O)CC(O)O[C@@]23C[C@H]2O[C@H]2C[C@H]13 (some centres unmarked) | Botrytis cinerea | = | 41
C=CC[C@@H]1C[C@]2(OC(C)=O)C[C@H](OC(C)=O)O[C@@]23CC=CC[C@H]13 | Botrytis cinerea | = | 18
C=CC[C@@H]1C[C@@]2(O)C[C@@H](CC=C)[C@H]3CC=CC[C@@]32O1 | Botrytis cinerea | > | 50
C=CC[Si](C)(C)O[C@@]12CCO[C@@]13CC[C@H]1C[C@H]3[C@H](CC=CC[Si](C)(C)O1)C2 | Botrytis cinerea | = | 34
C=CC[C@@H]1CC2=CC(=O)O[C@@]23CC=CC[C@H]13 | Botrytis cinerea | = | 30
C=CC[C@@H]1CC(=O)[C@@]2(O)CC=CC[C@H]12 | Botrytis cinerea | = | 48
C=CC[C@@H]1C[C@]2(O)CCO[C@@]23C[C@H]2O[C@H]2C[C@H]13 | Botrytis cinerea | = | 18
CO[C@@H]1CC(=O)[C@@]2(O)CC=CC[C@H]12 | Botrytis cinerea | = | 39
CO[C@@H]1C[C@]2(O)CC(=O)O[C@@]23CC=CC[C@H]13 | Botrytis cinerea | > | 50
C=CC[C@@H]1C[C@]2(O)C(C(=O)OCC)C(=O)O[C@@]23CC=CC[C@H]13 (some centres unmarked) | Botrytis cinerea | > | 50

====

Measured inhibition at 50 µg/mL accompanies every entry in the list below.
Test system: Cercospora arachidicola
assayProcedure: Fungicidal activity, fungicide growth rate method, CA
Format: cell-based
assayContext: Mycosphaerella arachidis, 50 μg/mL; read-out: fungicidal activity (growth inhibition rate), CA

compound | inhibition at 50 µg/mL
CC(=O)O[C@@]12C[C@H]3CC=CC[C@@]1(O3)[C@@H]1CC=CC[C@@H]1C2 | > 50%
CCOC(=O)C1C(=O)O[C@]23CC=CC[C@@H]2[C@H](OC)C[C@]13O (stereo partly drawn) | > 50%
C=CC[C@@H]1C[C@@]2(OC(C)=O)C[C@@H](CC=C)[C@H]3CC=CC[C@@]32O1 | > 50%
